# Tgt: Amyloid-beta precursor protein (Homo sapiens, UniProt P05067)
# Sequence (P05067 whole entry): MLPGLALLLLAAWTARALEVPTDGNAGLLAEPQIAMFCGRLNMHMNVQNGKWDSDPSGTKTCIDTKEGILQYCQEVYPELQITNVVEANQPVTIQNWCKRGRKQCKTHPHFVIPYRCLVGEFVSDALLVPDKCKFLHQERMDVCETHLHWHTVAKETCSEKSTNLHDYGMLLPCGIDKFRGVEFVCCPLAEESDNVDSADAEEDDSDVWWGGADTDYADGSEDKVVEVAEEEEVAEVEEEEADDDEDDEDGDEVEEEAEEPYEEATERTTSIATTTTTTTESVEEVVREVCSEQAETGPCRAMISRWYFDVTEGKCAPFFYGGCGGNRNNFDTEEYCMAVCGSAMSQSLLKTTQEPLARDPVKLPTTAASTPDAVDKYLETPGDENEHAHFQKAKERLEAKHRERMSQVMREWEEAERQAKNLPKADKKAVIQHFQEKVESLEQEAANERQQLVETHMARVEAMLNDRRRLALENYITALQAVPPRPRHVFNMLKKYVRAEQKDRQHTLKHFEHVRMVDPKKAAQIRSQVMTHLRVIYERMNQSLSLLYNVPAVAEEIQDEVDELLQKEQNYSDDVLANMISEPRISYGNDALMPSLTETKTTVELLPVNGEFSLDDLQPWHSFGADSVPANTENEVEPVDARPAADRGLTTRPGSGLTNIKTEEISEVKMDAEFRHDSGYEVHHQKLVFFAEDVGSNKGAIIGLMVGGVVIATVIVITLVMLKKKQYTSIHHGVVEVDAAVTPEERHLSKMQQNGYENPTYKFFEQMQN
# Method description: Inhibition of amyloid beta (1 to 42) aggregation at 2 uM after 2 hrs by SDS-PAGE and PICUP technique
The source made the active and inactive calls. No cut-off for these calls is given here.
Measurement kind: inhibition

> print(dat)
                            compound.smiles  endpoint.result
1  COc1cc(/C=C/c2cc(/C=C/c3ccc(O)c(OC)c3)ncn2)ccc1O           Active
2  CN(C)c1cc(/C=C/c2cc(/C=C/c3ccc(O)c(N(C)C)c3)ncn2)ccc1O           Active
3  CN(C)c1ccc(/C=C/c2cc(/C=C/c3ccc(N(C)C)c(O)c3)ncn2)cc1O           Active
4  COc1ccc(/C=C/c2cc(/C=C/c3ccc(OC)c(O)c3)ncn2)cc1O           Active

* * *

# Tgt: Amyloid-beta precursor protein (Homo sapiens, UniProt P05067)
# Method description: Inhibition of amyloid beta (1 to 42) fibril formation after 1 hr by ThT spectrofluorometric analysis
Measurement kind: IC50 (µM)
Use µM as the unit, but write only the number.

Record COc1ccc(/C=C/c2cc(/C=C/c3ccc(OC)c(O)c3)ncn2)cc1O ; system Amyloid-beta precursor protein (Homo sapiens, UniProt P05067); IC50 = 2.1

Record CN(C)c1ccc(/C=C/c2cc(O)cc(/C=C/c3ccc(N(C)C)c(O)c3)c2)cc1O ; system Amyloid-beta precursor protein (Homo sapiens, UniProt P05067); IC50 = 3.3

* * *

# Method description: Cytotoxicity against mouse HT22 cells assessed as viability at 10 uM after 18 hrs by MTT assay
# Assay type: cell-based, HT-22
# Measurement context: read-out: Activity
Measurement kind: viability at 18 h, 10 µM (%)
Use % as the unit, but write only the number.

GET /value?item= Oc1cccc(/C=C/c2cccc(/C=C/c3cccc(O)c3)c2)c1 &field=viability at 18 h, 10 µM returns 47

* * *

Listed next: entries and their corresponding viability at 18 h, 10 µM.
# Method description: Cytotoxicity against mouse HT22 cells assessed as viability at 10 uM after 18 hrs by MTT assay
# Type: cell-based, HT-22
# Measurement context: read-out: Activity
Use % as the unit, but write only the number.

Solved cases below.
> print(dat)
                            compound.smiles  unit.name  endpoint.result
1  COc1cc(/C=C/c2cc(/C=C/c3ccc(O)c(OC)c3)nc(SC)n2)ccc1O          %               79
2  CN(C)c1ccc(/C=C/c2cccc(/C=C/c3ccc(N(C)C)c(O)c3)c2)cc1O          %              101

GET /value?item= Oc1ccc(/C=C/c2cc(O)cc(/C=C/c3ccc(O)cc3)c2)cc1 &field=viability at 18 h, 10 µM returns 37.4

GET /value?item= COc1nc(/C=C/c2ccc(OC)c(O)c2)cc(/C=C/c2ccc(OC)c(O)c2)n1 &field=viability at 18 h, 10 µM returns 98.4

GET /value?item= COc1nc(/C=C/c2ccc(O)c(N(C)C)c2)cc(/C=C/c2ccc(O)c(N(C)C)c2)n1 &field=viability at 18 h, 10 µM returns 96.6

* * *

# Tgt: Amyloid-beta precursor protein (Homo sapiens, UniProt P05067)
# Method description: Inhibition of amyloid beta (1 to 42) fibril formation after 1 hr by ThT spectrofluorometric analysis
Measurement kind: IC50 (nM)
Use nM as the unit, but write only the number.

> print(dat)
                            compound.smiles  measurement.kind  unit.name  endpoint.result
1  CN(C)c1ccc(/C=C/c2cc(/C=C/c3ccc(N(C)C)c(O)c3)ncn2)cc1O              IC50         nM             3400

GET /value?item= CSc1nc(/C=C/c2ccc(N(C)C)c(O)c2)cc(/C=C/c2ccc(N(C)C)c(O)c2)n1 &field=IC50 returns 1100

GET /value?item= Oc1ccc(/C=C/c2cc(O)cc(/C=C/c3ccc(O)cc3)c2)cc1 &field=IC50 returns 1600

GET /value?item= COc1ccc(/C=C/c2cc(O)cc(/C=C/c3ccc(OC)c(O)c3)c2)cc1O &field=IC50 returns 1600

* * *

# Tgt: Amyloid-beta precursor protein (Homo sapiens, UniProt P05067)
# Method description: Inhibition of amyloid beta (1 to 42) fibril formation at 10 uM after 1 hr by ThT spectrofluorometric analysis
Decision: inhibition compared against 70%; not below it gives label 1, below it gives label 0.

Answered examples (6):
> print(dat)
                            compound.smiles                                       tgt  class.assignment
1  Oc1ccc(/C=C/c2cc(O)cc(/C=C/c3ccc(O)cc3)c2)cc1  Amyloid-beta precursor protein (Homo sapiens, UniProt P05067)           label 1
2  COc1cc(/C=C/c2cc(O)cc(/C=C/c3ccc(O)c(OC)c3)c2)ccc1O  Amyloid-beta precursor protein (Homo sapiens, UniProt P05067)           label 1
3  CN(C)c1ccc(/C=C/c2cc(/C=C/c3ccc(N(C)C)c(O)c3)ncn2)cc1O  Amyloid-beta precursor protein (Homo sapiens, UniProt P05067)           label 1
4   Oc1cc(/C=C/c2ccccc2)cc(/C=C/c2ccccc2)c1  Amyloid-beta precursor protein (Homo sapiens, UniProt P05067)           label 0
5  COc1nc(/C=C/c2ccc(O)cc2)cc(/C=C/c2ccc(O)cc2)n1  Amyloid-beta precursor protein (Homo sapiens, UniProt P05067)           label 0
6  Oc1ccc(/C=C/c2cc(/C=C/c3ccc(O)cc3)ncn2)cc1  Amyloid-beta precursor protein (Homo sapiens, UniProt P05067)           label 0

Determine whether this compound has inhibition no lower than 70%: Oc1cccc(/C=C/c2cc(O)cc(/C=C/c3cccc(O)c3)c2)c1
label 0

Determine whether this compound has inhibition no lower than 70%: COc1cc(/C=C/c2cc(/C=C/c3ccc(O)c(OC)c3)nc(SC)n2)ccc1O
label 0

Determine whether this compound has inhibition no lower than 70%: Oc1ccc(/C=C/c2cccc(/C=C/c3ccc(O)cc3)c2)cc1
label 0

* * *

Listed next: entries and their corresponding viability at 18 h, 10 µM.
# Method description: Cytotoxicity against mouse HT22 cells assessed as viability at 10 uM after 18 hrs by MTT assay
# Type: cell-based, HT-22
# Measurement context: read-out: Activity
Use % as the unit, but write only the number.

Solved cases below.
> print(dat)
                            compound.smiles          measurement.kind  endpoint.result
1  COc1cc(/C=C/c2cc(O)cc(/C=C/c3ccc(O)c(OC)c3)c2)ccc1O  viability at 18 h, 10 µM             80.9
2  CN(C)c1cc(/C=C/c2cc(O)cc(/C=C/c3ccc(O)c(N(C)C)c3)c2)ccc1O  viability at 18 h, 10 µM               66
3  Oc1ccc(/C=C/c2cc(/C=C/c3ccc(O)cc3)ncn2)cc1  viability at 18 h, 10 µM              104
4  Oc1cccc(/C=C/c2cc(/C=C/c3cccc(O)c3)ncn2)c1  viability at 18 h, 10 µM              142
5  CN(C)c1ccc(/C=C/c2cc(/C=C/c3ccc(N(C)C)c(O)c3)ncn2)cc1O  viability at 18 h, 10 µM              133

GET /value?item= COc1nc(/C=C/c2ccc(N(C)C)c(O)c2)cc(/C=C/c2ccc(N(C)C)c(O)c2)n1 &field=viability at 18 h, 10 µM returns 101

GET /value?item= COc1nc(/C=C/c2cccc(O)c2)cc(/C=C/c2cccc(O)c2)n1 &field=viability at 18 h, 10 µM returns 45.9

GET /value?item= COc1ccc(/C=C/c2cccc(/C=C/c3ccc(OC)c(O)c3)c2)cc1O &field=viability at 18 h, 10 µM returns 69.5

GET /value?item= CN(C)c1cc(/C=C/c2cc(/C=C/c3ccc(O)c(N(C)C)c3)ncn2)ccc1O &field=viability at 18 h, 10 µM returns 146

GET /value?item= COc1ccc(/C=C/c2cc(/C=C/c3ccc(OC)c(O)c3)nc(SC)n2)cc1O &field=viability at 18 h, 10 µM returns 78.8

GET /value?item= CSc1nc(/C=C/c2ccc(O)cc2)cc(/C=C/c2ccc(O)cc2)n1 &field=viability at 18 h, 10 µM returns 65.3

GET /value?item= COc1cc(/C=C/c2cccc(/C=C/c3ccc(O)c(OC)c3)c2)ccc1O &field=viability at 18 h, 10 µM returns 74.8

GET /value?item= CSc1nc(/C=C/c2ccc(O)c(N(C)C)c2)cc(/C=C/c2ccc(O)c(N(C)C)c2)n1 &field=viability at 18 h, 10 µM returns 77.3
